# experimental-target: T1, GIP receptor (human (printed as hGIPR), UniProt P48546 22-466)
# T1 sequence (looked up): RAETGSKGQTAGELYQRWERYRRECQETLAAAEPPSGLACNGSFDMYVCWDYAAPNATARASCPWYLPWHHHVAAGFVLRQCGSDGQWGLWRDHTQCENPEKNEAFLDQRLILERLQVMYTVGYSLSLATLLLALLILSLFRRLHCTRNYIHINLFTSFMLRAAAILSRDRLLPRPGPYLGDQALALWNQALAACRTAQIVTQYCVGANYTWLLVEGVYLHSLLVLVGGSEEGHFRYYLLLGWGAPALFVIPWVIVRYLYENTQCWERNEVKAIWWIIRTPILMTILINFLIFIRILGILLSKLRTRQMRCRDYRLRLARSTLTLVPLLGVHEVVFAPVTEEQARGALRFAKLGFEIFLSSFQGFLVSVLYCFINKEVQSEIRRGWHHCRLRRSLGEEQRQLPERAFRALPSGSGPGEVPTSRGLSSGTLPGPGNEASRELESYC
# test-summary: cell-based or functional assay
Starred links: 1 amine or outer side, 2 acyl side, 3 side chain; linkers in the order of their positions; H or OH if unused. Non-standard residues stand in square brackets, D forms with d. Groups on a side chain read outwards from the residue. No end group written: not given here. *: point of attachment. C20 diacid = O=C(O)CCCCCCCCCCCCCCCCCCC(=O)*; C18 diacid = O=C(O)CCCCCCCCCCCCCCCCC(=O)*; γGlu = O=C(O)[C@H](CCC(=O)[*:2])N[*:1]; εLys = N[C@@H](CCCCN[*:1])C(=O)[*:2]; AEEA = NCCOCCOCC(=O)O; Aib = CC(C)(N)C(=O)O
measurement-type: EC50 hGIPR 100% hP (CreLuc) (nM)
Just the number in nM, nothing appended.

Would you please look over these solved cases?
# binder, measurement-type, unit-tag, observed
rows = [
    ("YXEGTFTSDYSIXLEKQAQXAFVEWLIKGGPSYGASLRHYYNWLTRQRY (Aib at 2, 13, 20; K28 side chain carries C20DA-gGlu-gGlu-gGlu-gGlu-gGlu-gGlu-eLys; C-terminal amide) [Compound 232]", "EC50 hGIPR 100% hP (CreLuc)", "nM", 1.64),
    ("Y[Aib]EGTFTSDYSI[Aib]LEKQAQ[Aib]AFVEWLIK([εLys-γGlu-γGlu-γGlu-γGlu-γGlu-γGlu-γGlu-C20 diacid])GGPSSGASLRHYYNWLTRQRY-NH2 (also: TFA salt) [Compound 225]", "EC50 hGIPR 100% hP (CreLuc)", "nM", 1.23),
    ("YXEGTFTSDYSIXLEKQAQXEFVEWLIKGGPSEGASLRHYYNWLTRQRY (Aib at 2, 13, 20; K28 side chain carries C18DA-gGlu-gGlu-gGlu-gGlu-gGlu-gGlu-eLys; C-terminal amide) [Compound 255]", "EC50 hGIPR 100% hP (CreLuc)", "nM", 1.23),
    ("YXEGTFTSDYSIXLEKQAQXAFVEWLIKGGPSEGQSLRHYYNWLTRQRY (Aib at 2, 13, 20; K28 side chain carries C20DA-gGlu-gGlu-gGlu-gGlu-gGlu-gGlu-eLys; C-terminal amide) [Compound 227]", "EC50 hGIPR 100% hP (CreLuc)", "nM", 1.23),
    ("YXEGTFTSDYSIXLEKQAQXAFVEWLIKGGPSSGASLRXYYNWLTRQRY (Aib at 2, 13, 20, 39; K28 side chain carries C20DA-gGlu-gGlu-gGlu-gGlu-gGlu-gGlu-eLys; C-terminal amide) [Compound 182]", "EC50 hGIPR 100% hP (CreLuc)", "nM", 1.39),
    ("Y[Aib]EGTFTSDYSI[Aib]LEKQAQ[Aib]AFVEWLIK([AEEA-AEEA-γGlu-γGlu-γGlu-γGlu-C18 diacid])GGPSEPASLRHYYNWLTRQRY-NH2 (also: TFA salt) [Compound 256]", "EC50 hGIPR 100% hP (CreLuc)", "nM", 1.56),
    ("Y[Aib]EGTFTSDYSI[Aib]LEKQAQ[Aib]AFVEWLIKGGPEEPASLRHYYNWLTRQRY-NH2 (not fully specified (residue 28); also: TFA salt) [Compound 206]", "EC50 hGIPR 100% hP (CreLuc)", "nM", 2.61),
    ("Y[Aib]EGTFTSDYSI[Aib]LEKQAQ[Aib]AFVEWLIKGGPSSGVSLRHYYNWLTRQRY-NH2 (not fully specified (residue 28); also: TFA salt) [Compound 212]", "EC50 hGIPR 100% hP (CreLuc)", "nM", 1.83),
]

For the next question, use this binder.
Entry Y[Aib]EGTFTSDYSI[Aib]LEKQAQ[Aib]AFVQWLIK([γGlu-γGlu-γGlu-γGlu-γGlu-γGlu-C18 diacid])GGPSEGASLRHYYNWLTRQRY-NH2 (also: TFA salt) [Compound 252] , EC50 hGIPR 100% hP (CreLuc) reported as 1.25
